Provenance of the data: patent US6514997B2

Task for the reader: assign each of the following molecules its reported pEC50.
system: strains of human rhinovirus (HRV); assay: Antirhinoviral H1-HeLa cell culture assay (XTT cell protection, EC50), other HRV strains; format: cell-based, human rhinovirus in H1-HeLa cells; conditions: Human rhinovirus sp., HRV19, H1-HeLa, HRV-19; read-out: EC50
A value of pEC50 is the negative decimal logarithm of a concentration given in moles per litre.

Input line: What value of pEC50 has been recorded for this entry: CC[C@@H](C(=O)N[C@H](/C=C/C(=O)OCc1ccccc1)C[C@@H]1CCNC1=O)n1cccc(NC(=O)c2cc(C)on2)c1=O
Output line: 7.68

Input line: Which pEC50 is listed for C#CC[C@@H](C(=O)N[C@H](/C=C/C(=O)OC1CCCC1)C[C@@H]1CCNC1=O)n1cccc(NC(=O)c2cc(C)on2)c1=O ?
Output line: 7.22

Input line: Bench note: what pEC50 did C#CC[C@@H](C(=O)N[C@H](/C=C/C(=O)OCc1ccccc1)C[C@@H]1CCNC1=O)n1cccc(NC(=O)c2cc(C)on2)c1=O show?
Output line: 7.85

Input line: Need pEC50, item C#CC[C@@H](C(=O)N[C@H](/C=C/C(=O)OC1CCC1)C[C@@H]1CCNC1=O)n1cccc(NC(=O)c2cc(C)on2)c1=O
Output line: 7.28

Input line: Could you share which pEC50 value was measured for Cc1cc(C(=O)Nc2cccn([C@@H](Cc3ccc(F)c(F)c3)C(=O)N[C@H](/C=C/C(=O)OC(C)(C)C)C[C@@H]3CCNC3=O)c2=O)no1 ?
Output line: 7.70

Input line: Reported pEC50, molecule CCOC(=O)/C=C/[C@H](C[C@@H]1CCNC1=O)NC(=O)[C@H](Cc1ccc(F)c(F)c1)n1cccc(NC(=O)c2cc(C)on2)c1=O : ____
Output line: 8.40

Input line: Given CC[C@@H](C(=O)N[C@H](/C=C/C(=O)OC1CCC1)C[C@@H]1CCNC1=O)n1cccc(NC(=O)c2cc(C)on2)c1=O , state its recorded pEC50.
Output line: 7.36

Input line: Query (molecule): CCOC(=O)/C=C/[C@H](C[C@@H]1CCNC1=O)NC(=O)[C@H](CC)n1cccc(NC(=O)c2cc(C)on2)c1=O ; field requested: pEC50
Output line: 7.19

Input line: I would be grateful if you could share the reported pEC50 for Cc1cc(C(=O)Nc2cccn([C@@H](Cc3ccc(F)c(F)c3)C(=O)N[C@H](/C=C/C(=O)OC(C)C)C[C@@H]3CCNC3=O)c2=O)no1 .
Output line: 8.05

Input line: # input molecule: Cc1cc(C(=O)Nc2cccn([C@@H](Cc3ccc(F)c(F)c3)C(=O)N[C@H](/C=C/C(=O)OC3CCC3)C[C@@H]3CCNC3=O)c2=O)no1 ; wanted: its pEC50
Output line: 7.77

Input line: Returns the measured pEC50 for the input molecule. Input: C#CC[C@@H](C(=O)N[C@H](/C=C/C(=O)OCC)C[C@@H]1CCNC1=O)n1cccc(NC(=O)c2cc(C)on2)c1=O
Output line: 7.30
